MEASUREMENT_PROTOCOL: SAD study incl. food effect: pharmacokinetics of LC350189 in plasma and urine
Format: in vivo, human
APPLIED_CONDITIONS: male, human, plasma, oral, t1/2, overall, approximate
VALUE_TYPE: half-life

Reported half-life, compound "CC(C)n1cc(C#N)c2cc(-n3cc(C(=O)O)cn3)ccc21" : ____
~10 h
